system.name: Serine/threonine-protein kinase D2 (Homo sapiens) (UniProt Q9BZL6)
Sequence (Q9BZL6 whole entry): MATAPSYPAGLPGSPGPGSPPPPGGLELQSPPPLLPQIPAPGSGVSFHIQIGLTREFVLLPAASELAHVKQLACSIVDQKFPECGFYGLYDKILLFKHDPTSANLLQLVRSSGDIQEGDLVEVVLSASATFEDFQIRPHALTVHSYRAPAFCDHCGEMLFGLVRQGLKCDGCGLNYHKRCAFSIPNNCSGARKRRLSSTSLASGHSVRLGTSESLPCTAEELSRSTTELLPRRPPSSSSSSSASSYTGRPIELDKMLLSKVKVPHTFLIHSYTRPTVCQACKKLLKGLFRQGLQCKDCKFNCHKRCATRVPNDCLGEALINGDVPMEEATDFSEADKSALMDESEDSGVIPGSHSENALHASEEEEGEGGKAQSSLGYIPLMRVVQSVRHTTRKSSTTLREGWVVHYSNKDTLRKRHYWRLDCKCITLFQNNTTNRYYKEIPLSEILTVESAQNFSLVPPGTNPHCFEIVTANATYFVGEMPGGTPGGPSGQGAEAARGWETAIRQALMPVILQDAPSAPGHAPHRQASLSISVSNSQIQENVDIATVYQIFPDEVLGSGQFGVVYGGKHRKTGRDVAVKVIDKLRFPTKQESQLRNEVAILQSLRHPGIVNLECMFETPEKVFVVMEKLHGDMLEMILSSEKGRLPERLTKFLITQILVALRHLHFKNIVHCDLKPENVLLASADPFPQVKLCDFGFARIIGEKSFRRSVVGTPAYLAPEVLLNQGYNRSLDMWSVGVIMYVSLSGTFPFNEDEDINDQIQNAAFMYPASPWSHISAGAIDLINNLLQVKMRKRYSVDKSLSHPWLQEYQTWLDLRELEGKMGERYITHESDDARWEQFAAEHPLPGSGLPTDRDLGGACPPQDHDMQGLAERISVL
method.summary: Inhibition of PKD2 (unknown origin) at 30 uM by microfluidic mobility shift assay relative to control
parameter.measured: inhibition

The examples below pair each entry with its known result.
> print(dat)
                                   compound                               system.name  result
1        c1nc(N2CCC3(CCCN3)CC2)c2nc[nH]c2n1  Serine/threonine-protein kinase D2 (Homo sapiens) (UniProt Q9BZL6)     82%
2  c1nc(N2CCCC3(CCCNC3)C2)c2nc[nH]c2n1 (centres undefined)  Serine/threonine-protein kinase D2 (Homo sapiens) (UniProt Q9BZL6)      7%
3  O=C(C1CCC2(CCN(c3ncnc4[nH]cnc34)CC2)NC1)N1CCOCC1 (racemic)  Serine/threonine-protein kinase D2 (Homo sapiens) (UniProt Q9BZL6)     27%

Qu. Recorded inhibition for c1ccc(CC2CCC3(CCN(c4ncnc5[nH]cnc45)CC3)NC2)cc1 (racemic) , please?
Ans. 30%

====

system.name: Mitogen-activated protein kinase 1 (Homo sapiens, UniProt P28482)
Sequence (P28482 whole entry): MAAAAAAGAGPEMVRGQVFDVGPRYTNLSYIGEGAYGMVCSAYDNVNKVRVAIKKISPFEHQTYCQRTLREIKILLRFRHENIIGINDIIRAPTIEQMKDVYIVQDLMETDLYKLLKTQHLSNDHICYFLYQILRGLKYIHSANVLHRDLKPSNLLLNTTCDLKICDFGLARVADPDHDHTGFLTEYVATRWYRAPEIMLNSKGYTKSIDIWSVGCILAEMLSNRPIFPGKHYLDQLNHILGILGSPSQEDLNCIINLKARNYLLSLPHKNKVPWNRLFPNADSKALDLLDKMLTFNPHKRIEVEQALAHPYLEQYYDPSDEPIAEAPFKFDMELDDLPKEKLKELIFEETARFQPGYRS
method.summary: Inhibition of ERK2 (unknown origin) at 30 uM by microfluidic mobility shift assay relative to control
Assign inhibition to each entry below.
Could you give the number and then its unit, please?

The examples below pair each entry with its known result.
> print(dat)
                                   compound  result
1  CNC(=O)C1CCC2(CCN(c3ncnc4[nH]cnc34)CC2)NC1 (racemic)     30%
2  c1ccc(C2CCNC3(CCN(c4ncnc5[nH]cnc45)CC3)C2)cc1 (racemic)     54%
3  NC1(Cc2ccccc2)CCN(S(=O)(=O)c2cccc3cnccc23)CC1     17%
4        c1nc(N2CCC3(CCNC3)CC2)c2nc[nH]c2n1     38%
5  OC1CCC2(CCN(c3ncnc4[nH]cnc34)CC2)NC1 (racemic)     42%

// below: inhibition requested for another compound
Qu. Recorded inhibition for NC1(Cc2ccccc2)CCN(c2ncnc3[nH]cnc23)CC1 , please?
Ans. 67%

====

Assign inhibition to each entry below.
system.name: Glycogen synthase kinase-3 beta (Homo sapiens, UniProt P49841)
Sequence (P49841 whole entry, looked up): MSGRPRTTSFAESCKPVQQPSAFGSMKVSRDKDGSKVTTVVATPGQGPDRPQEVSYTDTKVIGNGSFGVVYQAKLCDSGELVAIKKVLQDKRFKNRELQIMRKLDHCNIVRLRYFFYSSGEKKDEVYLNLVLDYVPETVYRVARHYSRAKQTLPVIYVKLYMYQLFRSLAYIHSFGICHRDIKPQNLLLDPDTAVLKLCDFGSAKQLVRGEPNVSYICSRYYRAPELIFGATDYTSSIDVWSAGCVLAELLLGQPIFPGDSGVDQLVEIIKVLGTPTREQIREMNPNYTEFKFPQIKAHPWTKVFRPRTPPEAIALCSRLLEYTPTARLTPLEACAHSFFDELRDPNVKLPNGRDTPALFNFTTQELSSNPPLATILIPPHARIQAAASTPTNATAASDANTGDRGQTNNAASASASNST
method.summary: Inhibition of GSK3beta (unknown origin) at 30 uM by microfluidic mobility shift assay relative to control
Numbers only, in %.

The examples below pair each entry with its known result.
> print(dat)
                                   molecule  parameter.measured  unit  measured.number
1  c1ccc(C2CCNC3(CCN(c4ncnc5[nH]cnc45)CC3)C2)cc1 (racemic)          inhibition     %               20
2   O=S(=O)(c1cccc2cnccc12)N1CCC2(CCCN2)CC1          inhibition     %               20
3  CNC(=O)C1CCC2(CCN(c3ncnc4[nH]cnc34)CC2)NC1 (racemic)          inhibition     %               17

For each of the items listed, what is its inhibition?
1. c1ccc(C2CCC3(CCN(c4ncnc5[nH]cnc45)CC3)NC2)cc1 (stereo unspecified)
2. O=S(=O)(c1cccc2cnccc12)N1CCC2(CCNC2)CC1
3. OC1CCNC2(CCN(c3ncnc4[nH]cnc34)CC2)C1 (racemic)

Ans.
1: 21; 2: 1; 3: 19

====

Assign pIC50 to each entry below.
method.summary: Inhibition of PKA (unknown origin) using LRRASLG as substrate after 1 hr by fluorescence assay
Design: species or system Homo sapiens
One number for each entry, as −log10 of the molar value.

For each of the items listed, what is its pIC50?
1. c1ccc(C2CCNC3(CCN(c4ncnc5[nH]cnc45)CC3)C2)cc1 (racemic)
2. c1ccc(CC2CCNC3(CCN(c4ncnc5[nH]cnc45)CC3)C2)cc1 (racemic)
3. c1nc(N2CCC3(CCCNC3)CC2)c2nc[nH]c2n1
4. O=S(=O)(c1cccc2cnccc12)N1CCCC2(CCCNC2)C1 (centres undefined)

Ans.
[6.83, 7.51, 7.10, 5.44]

====

Assign inhibition to each entry below.
system.name: Tyrosine-protein kinase Lck (Homo sapiens, UniProt P06239)
Sequence (P06239 2-509 limits assumed): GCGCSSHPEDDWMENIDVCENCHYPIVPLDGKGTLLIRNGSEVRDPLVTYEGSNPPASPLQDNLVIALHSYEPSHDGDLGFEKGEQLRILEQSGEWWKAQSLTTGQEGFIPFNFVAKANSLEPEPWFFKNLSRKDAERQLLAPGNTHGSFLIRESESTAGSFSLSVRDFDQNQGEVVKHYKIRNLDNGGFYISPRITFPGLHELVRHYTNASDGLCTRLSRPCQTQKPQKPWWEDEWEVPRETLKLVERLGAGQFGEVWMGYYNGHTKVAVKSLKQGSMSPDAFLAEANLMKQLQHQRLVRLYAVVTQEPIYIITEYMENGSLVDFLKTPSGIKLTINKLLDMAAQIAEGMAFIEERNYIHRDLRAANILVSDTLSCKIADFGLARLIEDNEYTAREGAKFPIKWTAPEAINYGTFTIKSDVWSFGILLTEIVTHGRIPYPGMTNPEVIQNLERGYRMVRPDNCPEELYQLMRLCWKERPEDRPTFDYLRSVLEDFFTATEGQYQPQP
method.summary: Inhibition of LCK (unknown origin) at 30 uM by microfluidic mobility shift assay relative to control
Answers are plain numbers, in %.

> print(dat)
                                  compound  parameter.measured  unit  measured.number
1  O=S(=O)(c1cccc2cnccc12)N1CCC2(CCCN2)CC1          inhibition     %                6

For each of the items listed, what is its inhibition?
1. CNC(=O)C1CCC2(CCN(c3ncnc4[nH]cnc34)CC2)NC1 (racemic)
2. OCC1CCC2(CCN(c3ncnc4[nH]cnc34)CC2)NC1 (racemic)
3. c1nc(N2CCC3(CCCNC3)CC2)c2nc[nH]c2n1
4. O=C(C1CCC2(CCN(c3ncnc4[nH]cnc34)CC2)NC1)N1CCOCC1 (racemic)
5. CN(C)C(=O)C1CCC2(CCN(c3ncnc4[nH]cnc34)CC2)NC1 (racemic)
6. c1ccc(CC2CCC3(CCN(c4ncnc5[nH]cnc45)CC3)NC2)cc1 (racemic)
7. c1nc(N2CCC3(CCCN3)CC2)c2nc[nH]c2n1

Ans.
1: 31; 2: 15; 3: 64; 4: 16; 5: 19; 6: 44; 7: 21

====

Species: Homo sapiens
method.summary: Inhibition of PKA (unknown origin) at 30 uM by microfluidic mobility shift assay relative to control
Assign inhibition to each entry below.

The examples below pair each entry with its known result.
> print(dat)
                                   compound  parameter.measured  result
1        c1nc(N2CCC3(CCNC3)CC2)c2nc[nH]c2n1          inhibition     99%
2  O=S(=O)(c1cccc2cnccc12)N1CCCC2(CCCNC2)C1 (stereo not drawn)          inhibition     79%
3  OCC1CCC2(CCN(c3ncnc4[nH]cnc34)CC2)NC1 (racemic)          inhibition     98%
4   O=S(=O)(c1cccc2cnccc12)N1CCC2(CCNC2)CC1          inhibition     76%
5       c1nc(N2CCC3(CCCCC3)CC2)c2nc[nH]c2n1          inhibition     55%

For each of the items listed, what is its inhibition?
1. O=S(=O)(NCCNC/C=C/c1ccc(Br)cc1)c1cccc2cnccc12
2. OC1CCC2(CCN(c3ncnc4[nH]cnc34)CC2)NC1 (racemic)
3. c1nc(N2CCCC3(CCNCC3)C2)c2nc[nH]c2n1

Ans.
1: 100%; 2: 99%; 3: 98%

====

Assign inhibition to each entry below.
system.name: Mitogen-activated protein kinase 1 (Homo sapiens, UniProt P28482)
method.summary: Inhibition of ERK2 (unknown origin) at 30 uM by microfluidic mobility shift assay relative to control
Give bare numbers, in %.

The examples below pair each entry with its known result.
> print(dat)
                                   compound  measured.number
1  O=S(=O)(c1cccc2cnccc12)N1CCCC2(CCCNC2)C1 (stereo not drawn)                8
2     O=S(=O)(c1cccc2cnccc12)N1CCCC12CCNCC2                0

Qu. Recorded inhibition for c1ccc(C2CCC3(CCN(c4ncnc5[nH]cnc45)CC3)NC2)cc1 (stereo not drawn) , please?
Ans. 35

====

system.name: Serine/threonine-protein kinase Chk2 (Homo sapiens)
Sequence (O96017 whole entry): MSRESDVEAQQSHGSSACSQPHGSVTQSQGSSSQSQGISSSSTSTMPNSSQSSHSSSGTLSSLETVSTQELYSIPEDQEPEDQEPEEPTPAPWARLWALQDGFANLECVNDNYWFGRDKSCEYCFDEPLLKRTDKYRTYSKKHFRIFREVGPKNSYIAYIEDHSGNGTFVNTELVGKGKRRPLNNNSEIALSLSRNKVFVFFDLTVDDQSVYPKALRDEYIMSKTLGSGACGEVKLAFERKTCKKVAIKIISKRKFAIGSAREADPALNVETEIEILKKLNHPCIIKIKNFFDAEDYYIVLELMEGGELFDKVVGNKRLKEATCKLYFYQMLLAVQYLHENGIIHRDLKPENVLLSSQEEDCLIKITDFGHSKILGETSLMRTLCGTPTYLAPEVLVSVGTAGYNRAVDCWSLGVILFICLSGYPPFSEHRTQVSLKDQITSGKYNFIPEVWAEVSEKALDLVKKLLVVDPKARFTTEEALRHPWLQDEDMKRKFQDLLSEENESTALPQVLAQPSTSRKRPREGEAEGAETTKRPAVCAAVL
method.summary: Inhibition of CHK2 (unknown origin) at 30 uM by microfluidic mobility shift assay relative to control
Assign inhibition to each entry below.
One number for each entry, in %.

The examples below pair each entry with its known result.
> print(dat)
                                   compound                               system.name  unit  measured.number
1  O=S(=O)(c1cccc2cnccc12)N1CCCC2(CCCNC2)C1 (stereo not drawn)  Serine/threonine-protein kinase Chk2 (Homo sapiens)     %               23
2    NC1(Cc2ccccc2)CCN(c2ncnc3[nH]cnc23)CC1  Serine/threonine-protein kinase Chk2 (Homo sapiens)     %               74

Qu. State its inhibition on Serine/threonine-protein kinase Chk2 (Homo sapiens): c1ccc(CC2CCNC3(CCN(c4ncnc5[nH]cnc45)CC3)C2)cc1 (racemic)
Ans. 98

====

system.name: Ribosomal protein S6 kinase alpha-5 (Homo sapiens)
Sequence (O75582 whole entry, looked up): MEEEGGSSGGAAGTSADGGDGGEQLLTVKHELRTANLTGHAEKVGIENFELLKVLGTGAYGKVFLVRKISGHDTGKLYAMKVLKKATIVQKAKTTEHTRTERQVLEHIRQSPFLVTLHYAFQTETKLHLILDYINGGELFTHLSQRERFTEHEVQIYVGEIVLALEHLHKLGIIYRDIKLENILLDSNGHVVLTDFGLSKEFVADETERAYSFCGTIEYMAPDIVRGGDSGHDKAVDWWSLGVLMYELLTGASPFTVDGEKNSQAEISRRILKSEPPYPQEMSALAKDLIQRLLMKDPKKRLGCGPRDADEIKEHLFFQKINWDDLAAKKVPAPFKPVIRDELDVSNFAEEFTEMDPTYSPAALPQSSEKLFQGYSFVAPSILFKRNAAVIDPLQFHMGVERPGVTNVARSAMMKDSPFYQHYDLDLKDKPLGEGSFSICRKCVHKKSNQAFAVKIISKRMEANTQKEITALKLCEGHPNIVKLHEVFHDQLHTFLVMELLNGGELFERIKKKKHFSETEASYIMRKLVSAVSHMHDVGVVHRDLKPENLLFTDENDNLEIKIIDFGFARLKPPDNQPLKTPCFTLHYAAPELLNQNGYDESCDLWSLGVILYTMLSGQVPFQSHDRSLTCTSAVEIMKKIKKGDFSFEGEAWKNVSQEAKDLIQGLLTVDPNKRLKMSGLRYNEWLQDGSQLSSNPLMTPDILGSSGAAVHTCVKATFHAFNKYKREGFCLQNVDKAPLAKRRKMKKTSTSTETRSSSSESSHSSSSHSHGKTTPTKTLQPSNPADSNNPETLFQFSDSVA
method.summary: Inhibition of MSK1 (unknown origin) at 30 uM by microfluidic mobility shift assay relative to control
Assign inhibition to each entry below.
Could you give the number and then its unit, please?

The examples below pair each entry with its known result.
> print(dat)
                                   molecule  result
1  O=S(=O)(c1cccc2cnccc12)N1CCCC2(CCCNC2)C1 (stereo not given)     38%
2  c1ccc(CC2CCNC3(CCN(c4ncnc5[nH]cnc45)CC3)C2)cc1 (racemic)    100%
3  NC1(Cc2ccccc2)CCN(S(=O)(=O)c2cccc3cnccc23)CC1     58%
4  O=C(C1CCC2(CCN(c3ncnc4[nH]cnc34)CC2)NC1)N1CCOCC1 (racemic)     62%

Qu. Recorded inhibition for O=S(=O)(c1cccc2cnccc12)N1CCC2(CC1)CC(O)CCN2 (racemic) , please?
Ans. 86%
